System Tested: T1, transforming growth factor-beta 2 (TGF-β2) (UniProt P61812 303-414)
T1 construct: also called TGFb2; TGFB2
T1 sequence (looked up): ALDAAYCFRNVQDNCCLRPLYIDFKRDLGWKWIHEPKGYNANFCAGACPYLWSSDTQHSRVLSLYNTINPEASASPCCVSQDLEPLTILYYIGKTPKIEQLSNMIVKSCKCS
Assay Summary: ELISA, peptide on streptavidin plate, ligand 100 ng/ml
Ends that are not written are not given here.
Readout Name: ELISA OD450 (OD450)
Give your result in OD450 as a bare value.

YPINESLASLPLRVSFCPLSG (also: biotinylated, site not given here, also called peptide 20) [CLPTM1 peptide fragment of SEQ ID NO: 27]
0.025
AAAQEADGARSAVVAAGGGSG (also: biotinylated, site not given here) [CLPTM1 peptide fragment of SEQ ID NO: 8]
0.01
ARSAVVAAGGGSSGQVTSNGSIGRDPPAETQPQNPPAQPA (also: biotinylated, site not given here, also called peptide 27; GT3) [CLPTM1 peptide fragment of SEQ ID NO: 34]
0.123
SGQVTSNGSIGRDPPAETQPG (also: biotinylated, site not given here) [CLPTM1 peptide fragment of SEQ ID NO: 9]
0.001

// moving on: another record for ELISA OD450
Qu. Field request: ELISA OD450 | item: GDYYPIIYFNDYWNLQKDYYG (also: biotinylated, site not given here, also called peptide 21) [CLPTM1 peptide fragment of SEQ ID NO: 28]
Ans. 0.164
